Catalogue of IC50 readings, one per entry.
assay: Anticancer activity against human M85 cells after 48 hrs by MTT assay; type: functional, cell-based; conditions: Homo sapiens, M85, 48 h
parameter-measured: IC50 (µM)

>>> measured_value("Cc1cc2c(c(O)c1-c1c(C)cc3c(c1O)/C(=C/NC(C)C)C(=O)C(O)=C3C(C)C)/C(=C/NC(C)C)C(=O)C(O)=C2C(C)C (stereo in doubt; 10a)")
34.2
>>> measured_value("Cc1cc2c(c(O)c1-c1c(C)cc3c(c1O)/C(=C/N[C@H](CO)Cc1ccccc1)C(=O)C(O)=C3C(C)C)/C(=C/N[C@H](CO)Cc1ccccc1)C(=O)C(O)=C2C(C)C (stereo in doubt; 2a)")
21.5

Entry source: ChEMBL document CHEMBL1154047
